So I've got a bunch of compounds here, and I need their inhibition values.
- targetDesc: PRKCB2 (human)
- protocolDetails: Caliper, Mobility shift assay off-chip
- runConditions: compound 1.0 µM
Kindly answer with a numeric value in %, unit omitted.

Value of inhibition reported for the compound `Cn1cc(-c2cnc3ccc4ccc(CS(=O)(=O)CCc5ccccn5)cc4c(=O)c3c2)cn1` is -10.6

Value of inhibition reported for the compound `Cn1cc(-c2cnc3ccc4ccc(CS(N)(=O)=O)cc4c(=O)c3c2)cn1` is -6

Value of inhibition reported for the compound `CN(c1ccc2ccc3ncc(-c4cnn(C)c4)cc3c(=O)c2c1)S(=O)(=O)NCc1ccccn1` is 8.1

Value of inhibition reported for the compound Cn1cc(-c2cnc3ccc4ccc(CS(=O)(=O)NCC5CCCCN5)cc4c(=O)c3c2)cn1 (stereo not given) is -2.5

Value of inhibition reported for the compound `O=C(CCc1ccc2ccc3ncc(C4CCNCC4)cc3c(=O)c2c1)NCc1ccccn1` is -13.3

====

- targetDesc: LYN (human)
- protocolDetails: Caliper, Mobility shift assay off-chip
- runConditions: compound 1.0 µM
So I've got a bunch of compounds here, and I need their inhibition values.
Kindly answer with a numeric value in %, unit omitted.

Value of inhibition reported for the compound `CN(c1ccc2ccc3ncc(-c4cnn(C)c4)cc3c(=O)c2c1)S(=O)(=O)NCc1ccccn1` is 25.1

Value of inhibition reported for the compound Cn1cc(-c2cnc3ccc4ccc(CS(=O)(=O)NCC5CCCCN5)cc4c(=O)c3c2)cn1 (stereo not given) is 9.6

Value of inhibition reported for the compound `O=C(CCc1ccc2ccc3ncc(C4CCNCC4)cc3c(=O)c2c1)NCc1ccccn1` is -3.2

Value of inhibition reported for the compound `Cn1cc(-c2cnc3ccc4ccc(CS(=O)(=O)CCc5ccccn5)cc4c(=O)c3c2)cn1` is 5.9

Value of inhibition reported for the compound `Cn1cc(-c2cnc3ccc4ccc(CS(N)(=O)=O)cc4c(=O)c3c2)cn1` is -2.3

====

So I've got a bunch of compounds here, and I need their inhibition values.
- targetDesc: PRKD1 (human)
- protocolDetails: Caliper, Mobility shift assay off-chip
- runConditions: compound 0.1 µM
Kindly answer with a numeric value in %, unit omitted.

Value of inhibition reported for the compound `O=c1c2cc(CS(=O)(=O)NCc3ccccn3)ccc2ccc2ncc(C3CCNCC3)cc12` is -4.1

Value of inhibition reported for the compound `Cn1cc(-c2cnc3ccc4ccc(CS(N)(=O)=O)cc4c(=O)c3c2)cn1` is -5.2

Value of inhibition reported for the compound `Cn1cc(-c2cnc3ccc4ccc(CS(=O)(=O)CCc5ccccn5)cc4c(=O)c3c2)cn1` is -3.6

Value of inhibition reported for the compound `Cn1cc(-c2cnc3ccc4ccc(CS(=O)(=O)NC5CCCCC5)cc4c(=O)c3c2)cn1` is 11.3

Value of inhibition reported for the compound `CN(c1ccc2ccc3ncc(-c4cnn(C)c4)cc3c(=O)c2c1)S(=O)(=O)NCc1ccccn1` is -0.4

Value of inhibition reported for the compound `O=C(CCc1ccc2ccc3ncc(C4CCNCC4)cc3c(=O)c2c1)NCc1ccccn1` is 7

Value of inhibition reported for the compound Cn1cc(-c2cnc3ccc4ccc(CS(=O)(=O)NCC5CCCCN5)cc4c(=O)c3c2)cn1 (configuration not stated) is -8.3

====

- targetDesc: MAPK14 (human)
- protocolDetails: Caliper, Mobility shift assay off-chip
- runConditions: compound 0.1 µM
So I've got a bunch of compounds here, and I need their inhibition values.
Kindly answer with a numeric value in %, unit omitted.

Value of inhibition reported for the compound `Cn1cc(-c2cnc3ccc4ccc(CS(=O)(=O)NC5CCCCC5)cc4c(=O)c3c2)cn1` is -2.6

Value of inhibition reported for the compound `CN(c1ccc2ccc3ncc(-c4cnn(C)c4)cc3c(=O)c2c1)S(=O)(=O)NCc1ccccn1` is -4.5

Value of inhibition reported for the compound Cn1cc(-c2cnc3ccc4ccc(CS(=O)(=O)NCC5CCCCN5)cc4c(=O)c3c2)cn1 (configuration not stated) is 3.3

Value of inhibition reported for the compound `Cn1cc(-c2cnc3ccc4ccc(CS(N)(=O)=O)cc4c(=O)c3c2)cn1` is -13.9

Value of inhibition reported for the compound `O=c1c2cc(CS(=O)(=O)NCc3ccccn3)ccc2ccc2ncc(C3CCNCC3)cc12` is -6.5

Value of inhibition reported for the compound `Cn1cc(-c2cnc3ccc4ccc(CS(=O)(=O)CCc5ccccn5)cc4c(=O)c3c2)cn1` is 5.3

Value of inhibition reported for the compound `O=C(CCc1ccc2ccc3ncc(C4CCNCC4)cc3c(=O)c2c1)NCc1ccccn1` is -10.6
